test system: COLO 205 colon; experiment: NCI tumour cell line growth inhibition, 48 h
Listing of entries alongside the reported TGI.
Please respond with the number in µM and leave the unit unwritten.

CC(C)C[C@H](NC(=O)CNC(=O)c1cc(Cl)ccc1Cl)B1OC(=O)CC(CC(=O)O)(C(=O)O)O1 (some centres not stated) = 22.3

Query compound follows.
# TGI lookup, item CNCCCNCCCCNCCCN1C(=O)c2ccc3c4c(ccc(c24)C1=O)C(=O)N(CCCNCc1ccccc1OC)C3=O
8.16

* * *

Listing of entries alongside the reported GI50.
tested on: HCC-2998 colon; experiment: NCI tumour cell line growth inhibition, 48 h

Previously resolved entries follow.
FC(F)(F)c1ccc(-c2cnc(-c3ncon3)nc2NC2CCCCCC2)cc1 = 56.6 µM
CO/N=C(/C)c1ccc(NC(=O)CSc2nnc(-c3ccncc3)n2-c2ccccc2)cc1 = > 100 µM
N#Cc1c(N2CCOCC2)nc(=S)[nH]c1-c1ccco1 = 25.5 µM
CN1C(=O)N(C)C2C1NN=c1s/c(=C\c3ccc(C(F)(F)F)cc3)c(=O)n12 (stereo not given) = 2.68 µM

# GI50 lookup, item c1cnn2ncc(-c3ccnc(NCCCN4CCOCC4)n3)c2c1
9.29 µM
